tested on: Danio rerio Tg(wt1b:EGFP) embryo, pronephros; experiment: glomerular width (mean of left and right), fold change vs DMSO control; higher = wider glomerulus; details: 25 µM; exposure: 24-48 hpf
Structures can show the parent of a compound that is named as a salt.
If the reported glomerular width equals or exceeds 1, assign YES. If not, assign NO.

**Q:** hey, is glomerular width for this one >= 1? CCCC(=O)Nc1ncnc2c1ncn2[C@@H]1O[C@@H]2COP(=O)(O)O[C@H]2[C@H]1OC(=O)CCC [Bucladesine sodium salt]
**A:** NO

**Q:** Then this compound: Nc1ccn([C@@H]2O[C@H](CO)[C@@H](O)[C@@H]2O)c(=O)n1
**A:** YES

**Q:** Query NNc1nncc2ccccc12 [Hydralazine hydrochloride] next
**A:** YES

**Q:** Again, but for O=C1NCCN1c1ncc([N+](=O)[O-])s1
**A:** NO

Taken from the supplement of paper PMC7366291.
